target: T1, EsCas13d, nuclease-dead (Eubacterium siraeum, UniProt B0MS50, R295A;H300A;R849A;H854A)
T1 sequence: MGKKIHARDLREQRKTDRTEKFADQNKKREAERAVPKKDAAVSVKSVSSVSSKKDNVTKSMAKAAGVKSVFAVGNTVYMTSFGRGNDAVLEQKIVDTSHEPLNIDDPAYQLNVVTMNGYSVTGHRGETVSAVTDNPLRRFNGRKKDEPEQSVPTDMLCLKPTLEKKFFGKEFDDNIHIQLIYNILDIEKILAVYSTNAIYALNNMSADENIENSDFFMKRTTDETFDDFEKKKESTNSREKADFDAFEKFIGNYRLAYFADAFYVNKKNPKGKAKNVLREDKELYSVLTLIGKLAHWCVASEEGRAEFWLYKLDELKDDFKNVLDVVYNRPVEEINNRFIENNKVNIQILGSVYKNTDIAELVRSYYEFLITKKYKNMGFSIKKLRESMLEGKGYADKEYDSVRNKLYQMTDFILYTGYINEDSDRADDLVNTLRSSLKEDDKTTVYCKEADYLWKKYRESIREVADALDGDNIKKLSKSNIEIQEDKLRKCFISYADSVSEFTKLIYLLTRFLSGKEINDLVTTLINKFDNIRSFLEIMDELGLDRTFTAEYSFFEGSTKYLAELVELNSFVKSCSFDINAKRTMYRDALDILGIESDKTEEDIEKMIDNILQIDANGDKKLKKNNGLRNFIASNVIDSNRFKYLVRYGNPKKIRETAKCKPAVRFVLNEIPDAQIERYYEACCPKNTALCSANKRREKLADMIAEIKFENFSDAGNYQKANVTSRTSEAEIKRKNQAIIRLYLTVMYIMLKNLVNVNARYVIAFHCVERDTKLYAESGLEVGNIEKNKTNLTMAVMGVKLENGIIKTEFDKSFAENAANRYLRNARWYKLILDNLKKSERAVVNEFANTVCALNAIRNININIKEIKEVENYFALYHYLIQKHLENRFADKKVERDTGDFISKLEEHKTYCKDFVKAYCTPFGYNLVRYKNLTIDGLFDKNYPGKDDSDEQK
experimentalProtocol: crRNA (strand 1, pre-loaded); Mg2+; 40 mM Tris-HCl pH 7.5, 150 mM NaCl, 6 mM MgCl2, 1 mM DTT, 0.1% Tween-20, 0.2 mg/ml BSA; 25 C; 10 min per concentration, then washed
recordedConditions: tags: His6-TwinStrep-SUMO cleaved; N-terminal SNAP kept (SNAP-Surface 488); label: 3' end held by stalled T7 RNA polymerase
endpointName: pKd
Friendly reminder that pKd comes from taking -log10 of the concentration in mol/L.

**Q:** For the binder target 2 MT 5'PFS UCG 3'PFS AGA (mixed) RNA 1: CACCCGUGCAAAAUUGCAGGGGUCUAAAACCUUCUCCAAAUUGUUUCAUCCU RNA 2: GGGAAUGGAUCCACAUCUACGAAUUCUCGAGGAUGAAACAAUUUGGAGAAGAGAAGAUCGGAAGAGCACACGU , what pKd is on record?
**A:** 7.75

**Q:** Further, for target 2 MT 5'PFS UUA 3'PFS CGC (mixed) RNA 1: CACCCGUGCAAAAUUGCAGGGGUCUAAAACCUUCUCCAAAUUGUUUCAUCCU RNA 2: GGGAAUGGAUCCACAUCUACGAAUUCUUAAGGAUGAAACAAUUUGGAGAAGCGCAGAUCGGAAGAGCACACGU ?
**A:** 7.32

**Q:** Item: target 1 MT 5'PFS GGG 3'PFS UCC (mixed) RNA 1: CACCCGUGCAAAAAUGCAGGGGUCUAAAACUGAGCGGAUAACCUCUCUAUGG RNA 2: GGGAAUGGAUCCACAUCUACGAAUUCGGGCCAUAGAGAGGUUAUCCGCUCAUCCAGAUCGGAAGAGCACACGU
**A:** 7.55

**Q:** Same for target 3 insG 3' of 7 (mixed) RNA 1: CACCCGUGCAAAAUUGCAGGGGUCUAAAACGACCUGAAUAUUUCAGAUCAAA RNA 2: GGGAAUGGAUCCACAUCUACGAAUUCGUUUUUGAUCUGAAAUAUUGCAGGUCUGCAGAUCGGAAGAGCACACGU
**A:** 7.18

**Q:** Thanks! And target 1 G13U,A14C (mixed) RNA 1: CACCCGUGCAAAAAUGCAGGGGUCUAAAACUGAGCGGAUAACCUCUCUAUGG RNA 2: GGGAAUGGAUCCACAUCUACGAAUUCGUACCAUAGAGCUGUUAUCCGCUCACCGAGAUCGGAAGAGCACACGU ?
**A:** 7.97

**Q:** And for target 1 insA 3' of 7,insA 3' of 5 (mixed) RNA 1: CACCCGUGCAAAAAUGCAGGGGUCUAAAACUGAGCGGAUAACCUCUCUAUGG RNA 2: GGGAAUGGAUCCACAUCUACGAAUUCGUACCAUAGAGAGGUUAUCACGACUCACCGAGAUCGGAAGAGCACACGU ?
**A:** 8.14

**Q:** Subsequent entry: target 1 G12A,C21A (mixed) RNA 1: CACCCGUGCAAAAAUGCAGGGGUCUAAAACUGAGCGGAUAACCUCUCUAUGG RNA 2: GGGAAUGGAUCCACAUCUACGAAUUCGUACAAUAGAGAGAUUAUCCGCUCACCGAGAUCGGAAGAGCACACGU
**A:** 7.46

**Q:** Same thing, different binder: target 3 insG 3' of 7,insG 3' of 6 (mixed) RNA 1: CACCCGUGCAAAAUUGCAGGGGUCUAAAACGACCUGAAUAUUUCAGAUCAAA RNA 2: GGGAAUGGAUCCACAUCUACGAAUUCGUUUUUGAUCUGAAAUAUUGCGAGGUCUGCAGAUCGGAAGAGCACACGU
**A:** 7.60
